Value source: paper PMC4336329

experimentalTarget: human ether-à-go-go-related gene (hERG) potassium channel (human);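 also: peak tail current of the secondary pulse compared with the same well before compound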
Sequence (Q12809 whole entry, looked up): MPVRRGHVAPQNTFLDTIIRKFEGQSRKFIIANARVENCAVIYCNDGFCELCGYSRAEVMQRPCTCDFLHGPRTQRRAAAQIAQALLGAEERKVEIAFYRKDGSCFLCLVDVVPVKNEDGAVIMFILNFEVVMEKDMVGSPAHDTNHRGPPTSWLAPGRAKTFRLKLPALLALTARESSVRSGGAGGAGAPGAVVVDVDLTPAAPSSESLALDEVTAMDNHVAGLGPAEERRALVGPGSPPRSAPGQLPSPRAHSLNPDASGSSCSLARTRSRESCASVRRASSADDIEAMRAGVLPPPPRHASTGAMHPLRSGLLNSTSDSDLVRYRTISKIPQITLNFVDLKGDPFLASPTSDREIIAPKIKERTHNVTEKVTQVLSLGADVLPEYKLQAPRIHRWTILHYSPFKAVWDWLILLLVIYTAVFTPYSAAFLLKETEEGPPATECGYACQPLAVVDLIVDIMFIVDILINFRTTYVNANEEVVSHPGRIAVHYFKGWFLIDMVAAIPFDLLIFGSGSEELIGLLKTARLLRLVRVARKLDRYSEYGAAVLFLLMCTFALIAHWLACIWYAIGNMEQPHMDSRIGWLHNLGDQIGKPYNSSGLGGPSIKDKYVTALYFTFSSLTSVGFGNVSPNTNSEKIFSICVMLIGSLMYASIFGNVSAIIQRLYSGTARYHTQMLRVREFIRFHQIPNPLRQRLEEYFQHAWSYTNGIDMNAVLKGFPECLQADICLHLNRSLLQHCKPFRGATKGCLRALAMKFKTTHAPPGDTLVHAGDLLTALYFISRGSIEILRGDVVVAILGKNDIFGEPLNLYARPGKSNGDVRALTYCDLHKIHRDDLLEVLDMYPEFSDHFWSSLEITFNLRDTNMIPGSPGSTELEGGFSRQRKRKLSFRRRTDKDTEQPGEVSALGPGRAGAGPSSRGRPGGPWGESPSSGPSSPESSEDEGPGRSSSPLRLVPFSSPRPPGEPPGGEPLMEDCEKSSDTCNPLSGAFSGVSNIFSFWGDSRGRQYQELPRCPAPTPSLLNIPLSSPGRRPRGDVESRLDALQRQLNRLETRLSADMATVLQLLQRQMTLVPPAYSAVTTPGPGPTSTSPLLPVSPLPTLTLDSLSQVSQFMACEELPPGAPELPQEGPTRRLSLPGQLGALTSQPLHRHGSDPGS
protocolNotes: primary screen, population patch clamp on CHO cells stably expressing hERG; higher = less effect of the substance
Screen size: about 310,000 compounds; about 14,000 (4.5%) showed an effect of 50% or more. The effect is printed as a negative number. The full list was thinned out, with strong results kept by preference.
Below, each entry is listed with its recorded hERG current change (%, negative = inhibition) at 10uM.
outcomeMeasure: hERG current change (%, negative = inhibition) at 10uM (%)

{"columns": ["compound", "experimentalTarget", "number"],
 "data": [
  ["COc1ccc(-n2c(-c3ccccc3[N+](=O)[O-])nc3ccccc3c2=O)cc1", "human ether-à-go-go-related gene (hERG) potassium channel (human)", -68.7],
  ["Cc1cc(Cl)ccc1NC(=S)N1CCN(C(=O)c2ccco2)CC1", "human ether-à-go-go-related gene (hERG) potassium channel (human)", -8.95],
  ["COc1cc(-c2csc(N3CCOCC3)n2)cc(OC)c1OC", "human ether-à-go-go-related gene (hERG) potassium channel (human)", 13.3],
  ["COc1ccc(-n2c(Cc3cccc([N+](=O)[O-])c3)nc3ccccc3c2=O)cc1", "human ether-à-go-go-related gene (hERG) potassium channel (human)", -69.4],
  ["CCCc1nc2ccccc2c(=O)n1-c1ccc(OC)cc1", "human ether-à-go-go-related gene (hERG) potassium channel (human)", 9.5],
  ["O=C(CN1CCN(C(=O)c2ccco2)CC1)Nc1ccc(Cl)c(C(F)(F)F)c1", "human ether-à-go-go-related gene (hERG) potassium channel (human)", -67.1],
  ["O=C(NC1CC(=O)N(c2ccccc2)C1)C(=O)c1c[nH]c2ccccc12 (stereo not shown)", "human ether-à-go-go-related gene (hERG) potassium channel (human)", -11.1],
  ["COc1ccc(-n2c(-c3ccccc3Br)nc3ccccc3c2=O)cc1", "human ether-à-go-go-related gene (hERG) potassium channel (human)", -20.9],
  ["O=c1c2ccccc2nc(Cc2ccccc2)n1-c1ccc(O)cc1", "human ether-à-go-go-related gene (hERG) potassium channel (human)", -23.9],
  ["Cc1ccc(NC(=O)CN2CCN(C(=O)c3ccco3)CC2)cc1", "human ether-à-go-go-related gene (hERG) potassium channel (human)", -3.01]
]}
